# ASSAY_OVERVIEW: AUC(0 to 6 hrs) in Han Wistar rat plasma at 1 mg/kg, iv measured upto 6 hrs by liquid chromatography tandem mass spectrometry
# Format: ADME, organism-based
# Set-up: time < 6 hrs, dose 1 mg/kg, route iv
TEST_READOUT: AUC(0-t) at 6 h (ng·h/mL)
# unit: ng·h/mL | format: bare number

Give AUC(0-t) at 6 h for `COc1ccc(Cl)c(C(=O)NCC23CC4CC(CC(C4)C2)C3)c1` 186

Turning now to a further molecule:
Retrieve AUC(0-t) at 6 h measured for `COc1ccc(Cl)c(C(=O)NCC23CC4(F)CC(F)(CC(F)(C4)C2)C3)c1` and print it. 385
